Reference source: the supplement of paper PMC5908809

tested on: normal primary NK cells, pool 2 (3 donors) (IL-2 2.5 ng/mL); test: percent inhibition of viability; higher = more inhibition; conditions: 72 h; 1 nM;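 further: normalised to DMSO-only wells as negative and benzethonium chloride as positive control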
measured quantity: percent inhibition of viability (%)
Numbers only; they are read as %.

Some solved entries appear below for comparison.
{"molecule": "Oc1ncc(N(CCCl)CCCl)c(O)n1 [Uramustine] (max concentration tested 10000 nM)", "measured quantity": "percent inhibition of viability", "meas value": -0.88}
{"molecule": "O=NN(CCCl)C(=O)NCCCl [Carmustine] (max concentration tested 10000 nM)", "measured quantity": "percent inhibition of viability", "meas value": -2.54}

Summary: CC(=O)N(O)CCCCCNC(=O)CCC(=O)N(O)CCCCCNC(=O)CCC(=O)N(O)CCCCCN [Deferoxamine] (max concentration tested 10000 nM) , normal primary NK cells, pool 2 (3 donors) (IL-2 2.5 ng/mL), percent inhibition of viability = -2.8

Summary: COc1cccc2c1C(=O)c1c(O)c3c(c(O)c1C2=O)C[C@@](O)(C(C)=O)C[C@@H]3O[C@H]1C[C@H](N)[C@H](O)[C@H](C)O1 [Daunorubicin] (max concentration tested 1000 nM) , normal primary NK cells, pool 2 (3 donors) (IL-2 2.5 ng/mL), percent inhibition of viability = -1.9

Summary: CC(C)Oc1ccc(C(=O)N[C@H](CNC(=O)CN(C)C)Cc2ccc(-c3cn4cccc([C@H](C)O)c4n3)cc2)cc1Cl (max concentration tested 10000 nM) , normal primary NK cells, pool 2 (3 donors) (IL-2 2.5 ng/mL), percent inhibition of viability = -5.03

Summary: CC(C)C[C@@H](C(=O)N[C@H](C(=O)OC1CCCC1)c1ccccc1)[C@H](O)C(=O)NO [Tosedostat] (max concentration tested 10000 nM) , normal primary NK cells, pool 2 (3 donors) (IL-2 2.5 ng/mL), percent inhibition of viability = -1.97

Summary: Cn1cc(C2=Nc3cc(NC(=O)C(N)C4CCCCC4)cc4c3C2=CNNC4=O)cn1 (stereo not given) (max concentration tested 10000 nM) , normal primary NK cells, pool 2 (3 donors) (IL-2 2.5 ng/mL), percent inhibition of viability = -14.2

Summary: CC[C@]1(O)C[C@@H]2CN(CCc3c([nH]c4ccccc34)[C@@](C(=O)OC)(c3cc4c(cc3OC)N(C)[C@H]3[C@@](O)(C(=O)OC)[C@H](OC(C)=O)[C@]5(CC)C=CCN6CC[C@]43[C@@H]65)C2)C1 [Vinblastine] (max concentration tested 1000 nM) , normal primary NK cells, pool 2 (3 donors) (IL-2 2.5 ng/mL), percent inhibition of viability = 7.02

Summary: S=c1[nH]cnc2nc[nH]c12 [Mercaptopurine] (max concentration tested 10000 nM) , normal primary NK cells, pool 2 (3 donors) (IL-2 2.5 ng/mL), percent inhibition of viability = -14.1

Summary: CCOc1cc2ncc(C#N)c(Nc3ccc(OCc4ccccn4)c(Cl)c3)c2cc1NC(=O)/C=C/CN(C)C [Neratinib] (max concentration tested 1000 nM) , normal primary NK cells, pool 2 (3 donors) (IL-2 2.5 ng/mL), percent inhibition of viability = -2.28
